Source listed as the RNAGym collection of RNA variant scans (doi:10.7554/elife.90254).

B1: LINE1-mini (parent)
chain: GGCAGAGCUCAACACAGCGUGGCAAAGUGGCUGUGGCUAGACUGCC

Variants of: B1
run description: self-cleavage, relative activity (ratio to wild type); higher = more cleavage; in vitro, sequencing; the parent is a self-cleaving ribozyme
measurement type: self-cleavage
// return a plain number; no unit text

variant_identifier="G19C G36U" measurement_type=self-cleavage value_reported=0.06
variant_identifier="G27C G40C" measurement_type=self-cleavage value_reported=0.07
variant_identifier="G5A G19A" measurement_type=self-cleavage value_reported=0.29
variant_identifier="A11U G29A" measurement_type=self-cleavage value_reported=0.14
variant_identifier="G2U G22A" measurement_type=self-cleavage value_reported=0.11
variant_identifier="G2A U34A" measurement_type=self-cleavage value_reported=0.18
variant_identifier="G36A U38C" measurement_type=self-cleavage value_reported=0.12
variant_identifier="G5A U34A" measurement_type=self-cleavage value_reported=0.07
variant_identifier="G17C U43C" measurement_type=self-cleavage value_reported=0.08
variant_identifier="G7C C18A" measurement_type=self-cleavage value_reported=0.12

Task: Requested read-out: self-cleavage. Entry: G27U G30A
Result: 1.86
